Entries below carry reported pKi on Adenosine receptor A1 (Rattus norvegicus, UniProt P25099).
Sequence (P25099 whole entry): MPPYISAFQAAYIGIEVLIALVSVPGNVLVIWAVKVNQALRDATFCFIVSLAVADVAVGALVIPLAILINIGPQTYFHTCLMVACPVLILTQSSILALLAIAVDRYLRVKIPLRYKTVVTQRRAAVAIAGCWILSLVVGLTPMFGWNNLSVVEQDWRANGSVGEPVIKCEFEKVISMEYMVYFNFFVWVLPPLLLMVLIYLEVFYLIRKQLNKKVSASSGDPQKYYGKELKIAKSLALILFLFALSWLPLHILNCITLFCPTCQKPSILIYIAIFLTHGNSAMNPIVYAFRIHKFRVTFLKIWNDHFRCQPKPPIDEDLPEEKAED
pKi: −log10 of the molar value.
Property: pKi

substance_smiles=CCCn1c(=O)c2nc[nH]c2n(CCC)c1=O property=pKi numeric_result=6.15
substance_smiles=CC(C)CCn1c(=O)c2nc(-c3ccccc3)[nH]c2n(CC(C)C)c1=O property=pKi numeric_result=5.74
substance_smiles=Cn1c(=O)c2[nH]c(-c3ccccc3O)nc2n(C)c1=O property=pKi numeric_result=6.12

A. Cn1c(=O)c2[nH]c(-c3cccc(O)c3)nc2n(C)c1=O
B. Cn1c(=O)c2nc(-c3ccccc3N)[nH]c2n(C)c1=O
C. Cn1c(=O)c2[nH]c(-c3cccc(C(=O)O)c3)nc2n(C)c1=O
Sort entries by pKi from minimum to maximum value. Order the labels as requested and give them as your answer.
C, B, A
